# Target of assay: Sphingosine 1-phosphate receptor 1 (Homo sapiens)
# Sequence (P21453 whole entry): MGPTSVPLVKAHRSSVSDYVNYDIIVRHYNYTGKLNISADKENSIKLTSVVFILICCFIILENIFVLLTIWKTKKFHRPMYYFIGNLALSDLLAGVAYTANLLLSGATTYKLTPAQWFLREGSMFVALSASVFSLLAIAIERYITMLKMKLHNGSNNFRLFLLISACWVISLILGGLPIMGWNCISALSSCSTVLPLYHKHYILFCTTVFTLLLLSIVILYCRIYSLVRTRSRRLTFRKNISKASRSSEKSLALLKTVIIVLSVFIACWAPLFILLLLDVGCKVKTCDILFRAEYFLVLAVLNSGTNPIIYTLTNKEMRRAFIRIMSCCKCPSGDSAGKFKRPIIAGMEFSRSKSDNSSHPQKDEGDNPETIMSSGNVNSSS
# Assay overview: Agonist activity at eGFP-tagged human S1P1 receptor expressed in U2OS cells assessed as receptor internalization after 1 hr by Hoechst dye-based microscopic analysis
Experimental endpoint: EC50 (nM)

# example entries with known answers
{"Smiles str": "O=C(O)CCNCc1ccc(-c2nc3ccc(C4(c5ccccc5)CC4)nc3s2)c(F)c1", "Readout value": 3}
{"Smiles str": "N[C@H](CC(=O)Nc1ccc(-c2nc3ccc(C4(c5ccccc5)CC4)nc3s2)c(F)c1)C(=O)O", "Readout value": 2}
{"Smiles str": "O=C(O)CCCCc1ccc(-c2nc3ccc(C4(c5ccccc5)CC4)nc3s2)c(F)c1", "Readout value": 2410}
{"Smiles str": "O=C(O)CCCNCc1ccc(-c2nc3ccc(C4(c5ccccc5)CC4)nc3s2)c(F)c1", "Readout value": 179}
{"Smiles str": "C[C@@](N)(CCc1ccc(-c2nc3ccc(C4(c5ccccc5)CC4)nc3s2)c(F)c1)C(=O)O", "Readout value": 0.2}

a. NCCc1ccc(-c2nc3ccc(C4(c5ccccc5)CC4)nc3s2)c(F)c1
b. O=C(O)CCNc1ccc(-c2nc3ccc(C4(c5ccccc5)CC4)nc3s2)c(F)c1
In: Which shows the larger EC50 value: a or b ? Identify your selection by its label.
Out: a

###

# Test system: rat MDR1
# Assay overview: Efflux ratio of permeability across pig LLC-PK1 cells expressing rat MDR1
# Format: ADME, cell-based, Sus scrofa
Experimental endpoint: efflux ratio
The answer should be written as a number, with no unit following it.

In: Record lookup: for rat MDR1, what efflux ratio belongs to `C[C@@](N)(CCc1ccc(-c2nc3ccc(C4(c5ccccc5)CC4)nc3s2)c(F)c1)C(=O)O` ?
Out: 1.8

###

# Tested on: rat MDR1
# Assay overview: Permeability from apical to basolateral side in pig LLC-PK1 cells expressing rat MDR1
# Format: ADME, cell-based, Sus scrofa
# Experimental conditions: read-out: permeability
Experimental endpoint: Papp A→B (×10⁻⁶ cm/s)

I. C[C@@](N)(CCc1ccc(-c2nc3ccc(C4(c5ccccc5)CC4)nc3s2)c(F)c1)C(=O)O
II. O=C(O)C1CN(Cc2ccc(-c3nc4ccc(C5(c6ccccc6)CC5)nc4s3)c(F)c2)C1
In: Which shows the larger Papp A→B value: I or II ? Identify your selection by its label.
Out: II

###

# Target of assay: Sphingosine 1-phosphate receptor 3 (Homo sapiens, UniProt Q99500)
# Sequence (Q99500 whole entry): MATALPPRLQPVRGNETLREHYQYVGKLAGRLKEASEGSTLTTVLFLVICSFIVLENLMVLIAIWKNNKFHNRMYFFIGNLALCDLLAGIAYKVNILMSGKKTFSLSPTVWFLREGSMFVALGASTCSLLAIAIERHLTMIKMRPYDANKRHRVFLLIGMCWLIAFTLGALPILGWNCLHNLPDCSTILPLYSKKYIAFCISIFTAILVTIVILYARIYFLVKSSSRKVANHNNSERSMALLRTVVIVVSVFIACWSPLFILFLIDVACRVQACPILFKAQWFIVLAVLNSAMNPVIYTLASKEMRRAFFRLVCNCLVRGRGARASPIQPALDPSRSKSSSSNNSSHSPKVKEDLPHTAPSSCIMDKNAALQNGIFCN
# Assay overview: Agonist activity at human S1P3 receptor expressed in CHO cells coexpressing chimeric Gq/i5 G-protein assessed as Ca2+ release by FLIPR assay
pEC50: −log10 of the molar value.
Experimental endpoint: pEC50

{"Smiles str": "O=C(O)CCc1ccc(-c2nc3ccc(C4(c5ccccc5)CC4)nc3s2)c(F)c1", "Target of assay": "Sphingosine 1-phosphate receptor 3 (Homo sapiens, UniProt Q99500)", "Readout value": "< 4.60"}
{"Smiles str": "O=C(O)CCNCc1ccc(-c2nc3ccc(C4(c5ccccc5)CC4)nc3s2)c(F)c1", "Target of assay": "Sphingosine 1-phosphate receptor 3 (Homo sapiens, UniProt Q99500)", "Readout value": "< 4.60"}
{"Smiles str": "Nc1ccc(-c2nc3ccc(C4(c5ccccc5)CC4)nc3s2)c(F)c1", "Target of assay": "Sphingosine 1-phosphate receptor 3 (Homo sapiens, UniProt Q99500)", "Readout value": "< 4.60"}
{"Smiles str": "O=C(O)CCCCc1ccc(-c2nc3ccc(C4(c5ccccc5)CC4)nc3s2)c(F)c1", "Target of assay": "Sphingosine 1-phosphate receptor 3 (Homo sapiens, UniProt Q99500)", "Readout value": "< 4.60"}
{"Smiles str": "NCCCc1ccc(-c2nc3ccc(C4(c5ccccc5)CC4)nc3s2)c(F)c1", "Target of assay": "Sphingosine 1-phosphate receptor 3 (Homo sapiens, UniProt Q99500)", "Readout value": "< 5.60"}
{"Smiles str": "N[C@H](CC(=O)Nc1ccc(-c2nc3ccc(C4(c5ccccc5)CC4)nc3s2)c(F)c1)C(=O)O", "Target of assay": "Sphingosine 1-phosphate receptor 3 (Homo sapiens, UniProt Q99500)", "Readout value": "< 5.60"}
{"Smiles str": "N[C@H](CCc1ccc(-c2nc3ccc(C4(c5ccccc5)CC4)nc3s2)c(F)c1)C(=O)O", "Target of assay": "Sphingosine 1-phosphate receptor 3 (Homo sapiens, UniProt Q99500)", "Readout value": "< 5.60"}
{"Smiles str": "N[C@H](CC(=O)O)C(=O)Nc1ccc(-c2nc3ccc(C4(c5ccccc5)CC4)nc3s2)c(F)c1", "Target of assay": "Sphingosine 1-phosphate receptor 3 (Homo sapiens, UniProt Q99500)", "Readout value": 6.08}

We now examine a further molecule.
In: Record lookup: for Sphingosine 1-phosphate receptor 3 (Homo sapiens, UniProt Q99500), what pEC50 belongs to `C[C@@](N)(CCc1ccc(-c2nc3ccc(C4(c5ccccc5)CC4)nc3s2)c(F)c1)C(=O)O` ?
Out: < 5.60

###

# Target of assay: UniProtKB P21453
# Assay overview: Agonist activity at eGFP-tagged human S1P1 receptor expressed in U2OS cells assessed as receptor internalization after 1 hr by Hoechst dye-based microscopic analysis
Experimental endpoint: EC50 (µM)

# example entries with known answers
{"Smiles str": "NCc1ccc(-c2nc3ccc(C4(c5ccccc5)CC4)nc3s2)c(F)c1", "EC50, µM": 0.015}
{"Smiles str": "N[C@@H](CC(=O)O)C(=O)Nc1ccc(-c2nc3ccc(C4(c5ccccc5)CC4)nc3s2)c(F)c1", "EC50, µM": 0.0005}
{"Smiles str": "O=C(O)CCCc1ccc(-c2nc3ccc(C4(c5ccccc5)CC4)nc3s2)c(F)c1", "EC50, µM": 0.062}

I. Nc1ccc(-c2nc3ccc(C4(c5ccccc5)CC4)nc3s2)c(F)c1
II. Fc1ccccc1-c1nc2ccc(C3(c4ccccc4)CC3)nc2s1
In: Looking at I and II , which one comes out lower in EC50 terms? Identify your selection by its label.
Out: II

P. O=C(O)CNCCc1ccc(-c2nc3ccc(C4(c5ccccc5)CC4)nc3s2)c(F)c1
Q. O=C(O)c1ccc(-c2nc3ccc(C4(c5ccccc5)CC4)nc3s2)c(F)c1
In: Which shows the larger EC50 value: P or Q ? Identify your selection by its label.
Out: Q

A. N[C@@H](CC(=O)Nc1ccc(-c2nc3ccc(C4(c5ccccc5)CC4)nc3s2)c(F)c1)C(=O)O
B. CN(CCC(=O)O)Cc1ccc(-c2nc3ccc(C4(c5ccccc5)CC4)nc3s2)c(F)c1
C. O=C(O)CCCNc1ccc(-c2nc3ccc(C4(c5ccccc5)CC4)nc3s2)c(F)c1
In: Ascending by EC50, please: list the compounds accordingly. Provide the ranking by listing each label in its place in the requested order.
Out: A, C, B

A. NCCCc1ccc(-c2nc3ccc(C4(c5ccccc5)CC4)nc3s2)c(F)c1
B. N[C@H](CCc1ccc(-c2nc3ccc(C4(c5ccccc5)CC4)nc3s2)c(F)c1)C(=O)O
In: Which shows the larger EC50 value: A or B ? Identify your selection by its label.
Out: A
(A: 0.008 µM, B: 0.0003 µM)

I. C[C@](N)(CCc1ccc(-c2nc3ccc(C4(c5ccccc5)CC4)nc3s2)c(F)c1)C(=O)O
II. N[C@@H](CCc1ccc(-c2nc3ccc(C4(c5ccccc5)CC4)nc3s2)c(F)c1)C(=O)O
III. O=C(O)CCC(=O)Nc1ccc(-c2nc3ccc(C4(c5ccccc5)CC4)nc3s2)c(F)c1
In: Rank descending by EC50. Provide the ranking by listing each label in its place in the requested order.
Out: III, I, II
(III: 0.019 µM, I: 0.003 µM, II: 0.0005 µM)
